- Procedure Details: soluble on expression in E. coli; label from the status in PepcDB or PDB records

Residue Sequence | soluble on expression in E. coli
MQYHRIPHSSLEVSTLGLGTMTFGEQNSEADAHAQLDYAVAQGINLIDVAEMYPVPPRPETQGLTETYVGNWLAKHGSREKLIIASKVSGPSRNNDKGIRPDQALDRKNIREALHDSLKRLQTDYLDLYQVHWPQRPTNCFGKLGYSWTDSAPAVSLLDTLDALAEYQRAGKIRYIGVSNETAFGVMRYLHLADKHDLPRIVTIQNPYSLLNRSFEVGLAEVSQYEGVELLAYSCLGFGTLTGKYLNGAKPAGARNTLFSRFTRYSGEQTQKAVAAYVDIARRHGLDPAQMALAFVRRQPFVASTLLGATTMDQLKTNIESLHLELSEDVLAEIEAVHQVYTYPAP | soluble
MSDKISFLPPEPIQLLDEDSTEPELDIDSQQENEGPISASNSNDSTSHSNDCGATITRTRPRRSSSINANFSFQKAHVSDCTIVNGDHGTKFAVWRITVFLEPNLKAFAAKRESYKIQTYKRYSDFVRLRENLLTRIKTAKPEKLNCLQIPHLPPSVQWYSSWKYQEVNLNKDWLAKRQRGLEYFLNHIILNSSLVEMTKDILIQFLEPSKRVA | soluble
MMEEYVVIGKVLDTFGLEGELKVRPYAPPEVFENLEKVYLKRKGGDWVPFEVEWVDFIDDKVIIKFKGYDSIDEVEQFKGAKLFLPKEELPELGEEEYYAYELVGMEVETDKGKKLGKVERVQDMGPYDALVLDKENLLVPFVSDIVLKVDKENKKIIVKEELLPVLEHHHHHH | soluble
MTIDCHEDRRVLLVPHTGRPQNVASAALAAELLDDSGVGVRVLVPAEDTTVATHPVLGQFERVSHSPQATQSVDLVLVLGGDGTFLRAADLAHGADLPVLGINLGHVGFLAEWEKDSLDEAVRRVTKGSFRIEERMTLDVSVYDSNGTAIGRGWALNEVSIENSNRSGVLDATLEIDSRPVSSFGCDGIIVSTPTGSTAYAFSAGGPVLWPELDAILVVPNNAHALFTKPLVVSPRSSVAVESHPSAFPATAVMDGFRSISVPPGARVEVKRGSRSIKWVRLDDIPFTDRLVTKLRLPVEGWRGPKNMIPQINPHSALEHHHHHH | soluble

---

- Procedure Details: soluble on expression in E. coli; label from the status in PepcDB or PDB records
Recorded Endpoint: soluble on expression in E. coli

Residue Sequence | Measured Value
MGHHHHHHSHNDGRIMGFVSRSQERRLLKKTMSGTFLLRFSESSEGGITCSWVEHQDDDKVLIYSVQPYTKEVLQSLPLTEIIRHYQLLTEENIPENPLRFLYPRIPRDEAFGCYYQEKVNLQERRKYLKHRLIVVSNRQVDELQQPLELKPEPELESLELELGLVPEPELSLDLEPLLKAGLDLGPELESVLESTLEPVIEPTLCMVS | soluble
MELRIFFDGNCPLCSAEMRQLKARDPDDHIELVDLNAENFSSRFSYIDKDYANTILHGETASGQVLLGLDVTCKAWALTGTRPWIQVLRLPLIKPLADWCYLRFAKHRYRISYLLTGKARCDSQCQLPKLEHHHHHH | soluble
MSLSDDTSVVQDYIKSRDALVVLEQKMPLRDAFGGRYADIFSRFPGVIGRDGFEYFYRYFKNHVAVDVGTATAVTTLRVQAYTSKDAYLINKYLLEMAEKRVNELNDRSRQDSLRYALAEVAGAEAKVKAASTALSKFRSKASLFDPDRQSNIQLELVAKLRGELIAKQAQLSQLRMLSPQNPQIPSLAASIGALEASIASEKGGVAGEKNSLSDRSVEYQRLALEQSFGEKLLASALTSLEQARADAERKQIYLERVAEPNEPDVAMEPKREGHHHHHH | soluble
